Reported values of IC50 for individual entries
# Tested on: A2780 ovarian cells
# measurement_notes: A2780 Ovarian Cell Proliferation Assay in Lipid Reduced Medium, without Palmitate
# Format: cell-based
# measurement_conditions: Homo sapiens, A2780; lipid reduced medium, without palmitate, 96 h, MTT; read-out: Proliferation A2780 w/o Palmitate pIC50 (converted)

Below, 5 molecules whose answers are already recorded.
Entry "Cc1ccc(C(=O)N2CC(c3ccc(-c4cnn(C)c4)cc3)C2)cc1NC(=O)c1ccc(N(C)C(C)C)nc1" , IC50 reported as ~0.0295 µM

Entry "Cc1ccc(C(=O)N2CCC(c3ccc(-c4cnn(C)c4)cc3)CC2)cc1NC(=O)C1CN(C2CCCC2)C1" , IC50 reported as ~0.282 µM

Entry "Cc1ccc(C(=O)N2CC(c3ccc(-c4ccnn4C)cc3)C2)cc1NC(=O)c1ccc2ccccc2n1" , IC50 reported as ~0.0776 µM

Entry "Cc1ccc(C(=O)N2CCC(c3ccc(-n4ccnc4)cc3)CC2)cc1NC(=O)c1ccc(NC(C)C)nc1" , IC50 reported as ~0.0479 µM

Entry "Cc1ccc(C(=O)N2CCC(c3ccc(-c4cnn(CCO)c4)cc3)CC2)cc1NC(=O)c1ccc(NC(C)C)nc1" , IC50 reported as ~0.0224 µM

Please turn your attention to the following entry.
Entry CCN1CCC(C(=O)Nc2cc(C(=O)N3CCC(c4ccc(-c5cnn(C)c5)cc4)CC3)ccc2C)C1 (stereo not drawn) , IC50 reported as ~0.501 µM
